Value source: patent US20260076372A1

System: Alternaria solani
Test: in vitro 96-well micro-titration test on Alternaria solani spores
Type: cell-based
Conditions: Concentration 2.00%
Quick reference for inhibition of A. solani, ingredient alone in water among some molecules
Expressed in %, but write only the number.

Take a look at these entries with their results.
{"molecule": "[Na+].[Na+].[O]=[Mo](=[O])([O-])[O-] [Mo 0.01%, sodium molybdate]", "endpoint-value": "−1.3"}
{"molecule": "O=S(=O)([O-])[O-].[Zn+2]", "endpoint-value": 32.1}

Query for Alternaria solani: what inhibition of A. solani, ingredient alone in water does the record show for O=S(=O)([O-])[O-].[Mn+2] [Mn 7%] ?
73.2

Request body: readout inhibition of A. solani, ingredient alone in water, system Alternaria solani, query O=S(=O)([O-])[O-].[Fe+2] . Return the value.
49.6

Provide value of inhibition of A. solani, ingredient alone in water for this record tested with Alternaria solani: O=S(=O)([O-])[O-].[Mg+2]
−1.8

Query for Alternaria solani: what inhibition of A. solani, ingredient alone in water does the record show for O=S(=O)([O-])[O-].[Cu+2] ?
−1.8

Item O=S(=O)([O-])[O-].[Mn+2] [Mn 3.7%] with Alternaria solani - inhibition of A. solani, ingredient alone in water?
15.1

Reported inhibition of A. solani, ingredient alone in water for Alternaria solani, given [Cl-].[K+] ?
−8.9

* * *

System: Septoria tritici (Zymoseptoria tritici)
Assay: in vitro 96-well micro-titration test on Septoria tritici / Zymoseptoria tritici
Type: cell-based
Conditions: Z. tritici, Table 23, ingredient alone in water
Consider the following compounds and their measured EC95 (%) readings.

These solved cases illustrate the format of a correct answer.
{"compound": "O=S(=O)([O-])[O-].[Cu+2]", "endpoint-value": ">10%"}
{"compound": "[Na+].[Na+].[O]=[Mo](=[O])([O-])[O-] [Mo 0.01%, sodium molybdate]", "endpoint-value": ">10%"}
{"compound": "O=S(=O)([O-])[O-].[Mn+2] [Mn 3.7%]", "endpoint-value": ">10%"}
{"compound": "O=S(=O)([O-])[O-].[Zn+2]", "endpoint-value": ">10%"}
{"compound": "O=S(=O)([O-])[O-].[Fe+2]", "endpoint-value": "2.86%"}

Lab note: need EC95 (%) for [Cl-].[K+] on Septoria tritici (Zymoseptoria tritici), anyone have it?
>10%

GET /values?readout=EC95 (%)&system=Septoria tritici (Zymoseptoria tritici)&item= O=S(=O)([O-])[O-].[Mn+2] [Mn 7%]
>10%

# returns recorded EC95 (%) (system: Septoria tritici (Zymoseptoria tritici)) for O=S(=O)([O-])[O-].[Mg+2]
>10%

* * *

Test system: Plasmopara viticola
Experiment: in vitro antifungal action of single ingredients on Plasmopara viticola
Format: cell-based
Conditions: Concentration 6.00%
measured-quantity: in vitro activity against Plasmopara viticola, ingredient alone in water (%)
Respond with the bare value in %.

{"compound": "O=S(=O)([O-])[O-].[Zn+2] [Zn 7%]", "value-unit": "%", "endpoint-value": 98.93}
{"compound": "O=S(=O)([O-])[O-].[Mn+2] [Mn 3.7%]", "value-unit": "%", "endpoint-value": 97.72}
{"compound": "O=S(=O)([O-])[O-].[Mg+2] [Mg 0.5%]", "value-unit": "%", "endpoint-value": 91.75}
{"compound": "[Na+].[Na+].[O]=[Mo](=[O])([O-])[O-] [Mo 0.01%, sodium molybdate]", "value-unit": "%", "endpoint-value": 74.22}
{"compound": "O=S(=O)([O-])[O-].[Mn+2] [Mn 7%]", "value-unit": "%", "endpoint-value": 97.69}

// moving on: another record for in vitro activity against Plasmopara viticola, ingredient alone in water
// query in vitro activity against Plasmopara viticola, ingredient alone in water value for entry [Cl-].[K+] [KCl 0.24%]
94.91

* * *

System: Alternaria solani
Experiment: in vitro 96-well micro-titration test on Alternaria solani spores
Format: cell-based
Conditions: Concentration 0.05% mass of the stated aqueous solution
measured-quantity: inhibition of A. solani, ingredient alone in water (%)
Write it as a number; the unit % goes unstated.

A selection of reference data follows.
{"molecule": "O=S(=O)([O-])[O-].[Cu+2]", "endpoint-value": "−2.8"}
{"molecule": "O=S(=O)([O-])[O-].[Mn+2] [Mn 3.7%]", "endpoint-value": "−2.3"}
{"molecule": "O=S(=O)([O-])[O-].[Mg+2]", "endpoint-value": "−1.2"}

Please examine the following record next.
// inhibition of A. solani, ingredient alone in water lookup, key: [Cl-].[K+]
1.2

* * *

System: Septoria tritici (Zymoseptoria tritici)
Assay: in vitro 96-well micro-titration test on Septoria tritici / Zymoseptoria tritici
Type: cell-based
Details: Concentration 0.50%
measured-quantity: inhibition of Z. tritici, ingredient alone in water (%)
Express it in %; write the number only.

Consider the reported inhibition of Z. tritici, ingredient alone in water for these molecules:
{"molecule": "[Na+].[Na+].[O]=[Mo](=[O])([O-])[O-] [Mo 0.01%, sodium molybdate]", "assay-target": "Septoria tritici (Zymoseptoria tritici)", "value-unit": "%", "endpoint-value": "−1.1"}
{"molecule": "O=S(=O)([O-])[O-].[Fe+2] [Fe 4%]", "assay-target": "Septoria tritici (Zymoseptoria tritici)", "value-unit": "%", "endpoint-value": 37.1}
{"molecule": "O=S(=O)([O-])[O-].[Mg+2] [Mg 0.5%]", "assay-target": "Septoria tritici (Zymoseptoria tritici)", "value-unit": "%", "endpoint-value": 0.9}
{"molecule": "[Cl-].[K+] [KCl 0.24%]", "assay-target": "Septoria tritici (Zymoseptoria tritici)", "value-unit": "%", "endpoint-value": 2.2}
{"molecule": "O=S(=O)([O-])[O-].[Mn+2] [Mn 3.7%]", "assay-target": "Septoria tritici (Zymoseptoria tritici)", "value-unit": "%", "endpoint-value": 13.8}
{"molecule": "O=S(=O)([O-])[O-].[Mn+2] [Mn 7%]", "assay-target": "Septoria tritici (Zymoseptoria tritici)", "value-unit": "%", "endpoint-value": 27.6}

May I ask what inhibition of Z. tritici, ingredient alone in water has been recorded for O=S(=O)([O-])[O-].[Cu+2] [Cu 1.5%] ?
17.3

Can you look up the measured inhibition of Z. tritici, ingredient alone in water of O=S(=O)([O-])[O-].[Zn+2] [Zn 7%] for me?
28.1

* * *

System: Plasmopara viticola
Test: in vitro antifungal action of single ingredients on Plasmopara viticola
Assay type: cell-based
Details: Concentration 2.00%
measured-quantity: in vitro activity against Plasmopara viticola, ingredient alone in water (%)
State just the number; it will be interpreted in %.

{"compound": "O=S(=O)([O-])[O-].[Mg+2] [Mg 0.5%]", "endpoint-value": 69.80}

Entry under review: [Cl-].[K+] [KCl 0.24%] . Reported in vitro activity against Plasmopara viticola, ingredient alone in water?
75.81

For the compound shown here, O=S(=O)([O-])[O-].[Zn+2] [Zn 7%] , give the reported in vitro activity against Plasmopara viticola, ingredient alone in water.
99.08

Query: in vitro activity against Plasmopara viticola, ingredient alone in water; subject: O=S(=O)([O-])[O-].[Mn+2] [Mn 7%]
97.25

Quick one: in vitro activity against Plasmopara viticola, ingredient alone in water for O=S(=O)([O-])[O-].[Mn+2] [Mn 3.7%] ?
97.24

Query (compound): [Na+].[Na+].[O]=[Mo](=[O])([O-])[O-] [Mo 0.01%, sodium molybdate] ; field requested: in vitro activity against Plasmopara viticola, ingredient alone in water
72.42

* * *

inhibition of A. solani, ingredient alone in water listing for selected compounds.
System: Alternaria solani
Assay: in vitro 96-well micro-titration test on Alternaria solani spores
Assay type: cell-based
Conditions: Concentration 10.00%
Unit % implied. Number only.

Below, 5 compounds whose answers are already recorded.
{"compound": "O=S(=O)([O-])[O-].[Zn+2]", "endpoint-value": 59.1}
{"compound": "O=S(=O)([O-])[O-].[Mn+2] [Mn 3.7%]", "endpoint-value": 48.4}
{"compound": "O=S(=O)([O-])[O-].[Mg+2]", "endpoint-value": "−2.4"}
{"compound": "[Na+].[Na+].[O]=[Mo](=[O])([O-])[O-] [Mo 0.01%, sodium molybdate]", "endpoint-value": "−0.4"}
{"compound": "O=S(=O)([O-])[O-].[Cu+2]", "endpoint-value": "−2.9"}

Which measured inhibition of A. solani, ingredient alone in water value corresponds to [Cl-].[K+] ?
−2.9

Can you share its inhibition of A. solani, ingredient alone in water? I mean this compound: O=S(=O)([O-])[O-].[Mn+2] [Mn 7%]
101.1

Sample O=S(=O)([O-])[O-].[Fe+2] — what was its inhibition of A. solani, ingredient alone in water?
100.0
